Tested on: HUVEC
experimental protocol: Antivascular activity in HUVEC cells assessed as change in cell shape at 1 uM after 1 hr by fluorescent-labeled high molecular weight F-dextran permeability assay
Assay type: functional, cell-based
run conditions: Homo sapiens
The source made the active and inactive calls. No cut-off for these calls is given here.
Write down one outcome, taken from Y = active, N = inactive

Worked examples, 4 compounds total:
> print(dat)
                         structure.notation  assigned.category
1  CO/C(=C\c1ccc(OC)c(F)c1)C(=O)c1cc(OC)c(OC)c(OC)c1                  Y
2  COc1ccc(/C=C(\C)C(=O)c2cc(OC)c(OC)c(OC)c2)cc1O                  Y
3  COc1ccc(C(=O)/C=C/c2ccc(OC)c(OP(=O)(O)O)c2)cc1                  Y
4  CN(Cc1cnc2nc(N)nc(N)c2n1)c1ccc(C(=O)N[C@@H](CCC(=O)O)C(=O)O)cc1                  N

Then there is this compound:
Problem: // return assay outcome for COc1ccc(/C=C\c2cc(OC)c(OC)c(OC)c2)cc1OP(=O)(O)O
Solution: Y

====

experimental protocol: Displacement of [3H]colchicine from tubulin assessed as bound colchicine at […] incubated in dark for 2 hrs by scintillation spectroscopy
Would you mind sorting the entries by Activity according to these classes? Low = under 8%, Mid = from 8% up to 30%, High = 30% and over

Worked examples, 4 compounds total:
> print(dat)
                         structure.notation  assigned.category
1  COc1ccc(OC)c(C(=O)/C(C)=C/c2ccc(N(C)C)cc2)c1                Low
2  COc1ccc(/C=C/C(=O)c2ccc(OC)c(OC)c2)c(OC)c1               High
3  COc1cc(C(=O)/C(C)=C/c2cc(F)c(OC)c(F)c2)cc(OC)c1OC                Mid
4  COc1ccc(/C=C(\C)C(=O)c2cc(OC)c(OC)c(OC)c2)cc1F                Low

Problem: Hi there! Could you help me figure out the category for COc1ccc(/C=C/C(=O)c2cc(OC)c(OC)c(OC)c2)cc1O please?
Solution: Mid

Problem: Hi there! Could you help me figure out the category for COc1ccc(C(=O)/C=C/c2ccc(OC)c(OP(=O)(O)O)c2)cc1 please?
Solution: High

Problem: Hi there! Could you help me figure out the category for CO/C(=C\c1cc(F)c(OC)c(F)c1)C(=O)c1cc(OC)c(OC)c(OC)c1 please?
Solution: High

Problem: Hi there! Could you help me figure out the category for COc1ccc(/C=C/C(=O)c2cc(OC)c(OC)c(OC)c2)cc1OC please?
Solution: High

Problem: Hi there! Could you help me figure out the category for COc1cc(OC)c(/C=C/C(=O)c2cc(OC)c(OC)c(OC)c2)c(OC)c1 please?
Solution: High

Problem: Hi there! Could you help me figure out the category for COc1ccc(C(=O)/C(C)=C/c2ccc(OC)c(OP(=O)(O)O)c2)cc1 please?
Solution: Mid

Problem: Hi there! Could you help me figure out the category for COc1cc(OC)c(C(=O)/C=C/c2ccc(OC)c(OC)c2OC)c(OC)c1 please?
Solution: Mid

Problem: Hi there! Could you help me figure out the category for CO/C(=C\c1ccc(OC)c(O)c1)C(=O)c1cc(OC)c(OC)c(OC)c1 please?
Solution: Low

Problem: Hi there! Could you help me figure out the category for COc1cc(C(=O)/C=C/c2ccc3c(c2)OCCO3)cc(OC)c1OC please?
Solution: Mid

====

Assign pIC50 to each entry below.
Test system: K562
experimental protocol: Antiproliferative activity against human K562 cells after 5 days by MTT assay
Format: functional, cell-based
run conditions: Homo sapiens, K562, 120 h
Give bare numbers, as −log10 of the molar value.

# annotated cases, reported pIC50 shown
> print(dat)
                         structure.notation  property.label  endpoint.value
1  COc1ccc(C(=O)/C=C/c2cc(OC)ccc2OC)c(Cl)c1           pIC50            5.40
2      COc1ccc(/C=C/C(=O)c2ccc(OC)cc2OC)cc1           pIC50            5.57
3  COc1ccc(C(=O)/C=C/c2ccc(O)c(O)c2)c(OC)c1OC           pIC50            5.77
4  COc1ccc(OC)c(C(=O)/C=C/c2ccc3c(c2)OCCO3)c1           pIC50            6.52
5                O=C(/C=C/c1ccccc1)c1ccccc1           pIC50            5.42

Parameters: items (list). Returns: pIC50 for each item.
1. COc1ccc(OC)c(/C=C/C(=O)c2ccc3c(c2)OCO3)c1
2. COc1ccc(C(=O)/C=C/c2cc(OC)c(OC)c(OC)c2)cc1OC
3. COc1cc(/C=C/C(=O)c2ccc3c(c2)OCO3)cc(OC)c1OC
4. CCO/C(=C\c1ccc(OC)c(F)c1)C(=O)c1cc(OC)c(OC)c(OC)c1
5. COc1ccc(/C=C/C(=O)c2ccc(OC)c(OC)c2)cc1OC
6. CCO/C(=C\c1cc(F)c(OC)c(F)c1)C(=O)c1cc(OC)c(OC)c(OC)c1
7. COc1ccc(OC)c(C(=O)/C(C)=C/c2ccc(N(C)C)cc2)c1

Solution:
5.19
5.96
5.54
7.96
5.66
6.64
7.92

====

Assign Activity to each entry below.
System: K562
experimental protocol: Cell cycle arrest in human K562 cells assessed as accumulation at G0/G1 phase at 20 nM after 24 hrs by propidium iodide staining-based flow cytometry
Type: functional
One number for each entry, in %.

# annotated cases, reported Activity shown
> print(dat)
                                   compound  endpoint.value
1  COc1ccc(/C=C/C(=O)c2ccc(OC)c(OC)c2)c(OC)c1              26
2  COc1ccc(/C=C(\C)C(=O)c2cc(OC)c(OC)c(OC)c2)cc1O              10
3  COc1cc(OC)c(/C=C/C(=O)c2cc(OC)c(OC)c(OC)c2)c(OC)c1              10
4  COc1ccc(C(=O)/C=C/c2cc(F)c(OC)c(F)c2)c(OC)c1OC              51
5  COc1ccc(/C=C(\C)C(=O)c2cc(OC)c(OC)c(OC)c2)cc1F               3
6  COc1ccc(/C=C(\C)C(=O)c2cc(OC)c(OC)c(OC)c2)cc1[N+](=O)[O-]              36
7  COc1ccc(OC)c(C(=O)/C(C)=C/c2ccc(N(C)C)cc2)c1              10
8  COc1ccc(/C=C/C(=O)c2cc(OC)c(OC)c(OC)c2)cc1N              48
9  COc1ccc(CC(C)C(=O)c2cc(OC)c(OC)c(OC)c2)cc1O (stereo not given)              36

In plain terms, COc1ccc(/C=C/C(=O)c2ccc(OC)c(OC)c2OC)cc1O has a documented Activity of 32

====

Assign Activity to each entry below.
System: K562
experimental protocol: Cell cycle arrest in human K562 cells assessed as accumulation at G0/G1 phase at 20 nM after 24 hrs by propidium iodide staining-based flow cytometry
Assay type: functional

# annotated cases, reported Activity shown
> print(dat)
                                   compound  endpoint.value
1  CO/C(=C\c1ccc(OC)c(O)c1)C(=O)c1cc(OC)c(OC)c(OC)c1              4%
2  COc1ccc(C(=O)/C(C)=C/c2ccc(OC)c(OP(=O)([O-])[O-])c2)cc1.[Na+].[Na+]             21%
3  COc1ccc(/C=C/C(=O)c2cc(OC)c(OC)c(OC)c2)cc1F              9%

Parameters: items (list). Returns: Activity for each item.
1. COc1cc(C(=O)/C=C/c2ccc3c(c2)OCCO3)cc(OC)c1OC
2. COc1ccc(/C=C/C(=O)c2cc(OC)c(OC)c(OC)c2)cc1O
3. CO/C(=C\c1cc(F)c(OC)c(F)c1)C(=O)c1cc(OC)c(OC)c(OC)c1
4. COc1ccc(/C=C(\C)C(O)c2cc(OC)c(OC)c(OC)c2)cc1O (stereo not given)
5. CO/C(=C\c1ccc(OC)c(F)c1)C(=O)c1cc(OC)c(OC)c(OC)c1

Solution:
["27%", "12%", "30%", "44%", "41%"]

Parameters: items (list). Returns: Activity for each item.
1. COc1cc(C(=O)/C(C)=C/c2cc(F)c(OC)c(F)c2)cc(OC)c1OC
2. COc1cc(C(=O)/C=C/c2cc(F)c(OC)c(F)c2)cc(OC)c1OC

Solution:
4%
20%
